- Test system: Plasmodium falciparum
- run_description: Antiplasmodial activity against Plasmodium falciparum at 15 uM after 72 hrs by luciferase reporter gene assay
- Assay type: functional
observable: inhibition at 15 µM (%)
Answers are plain numbers, in %.

Completed entries (count: 6):
# chemical_string, tgt, inhibition at 15 µM (%)
rows = [
    ("N#Cc1c(N)nc2sc(C(=O)c3cccc(Cl)c3)c(N)c2c1-c1ccccc1I", "Plasmodium falciparum", 65.4),
    ("N#Cc1c(N)nc2sc(C(=O)c3ccc(Cl)c(Cl)c3)c(N)c2c1-c1ccccc1Cl", "Plasmodium falciparum", 100),
    ("N#Cc1c(N)nc2sc(C(=O)c3cccc(Cl)c3)c(N)c2c1-c1ccccc1Cl", "Plasmodium falciparum", 100),
    ("N#Cc1c(N)nc2sc(C(=O)c3cccc(Br)c3)c(N)c2c1-c1ccccc1Cl", "Plasmodium falciparum", 100),
    ("N#Cc1c(N)nc2sc(C(=O)c3cccc(C(F)(F)F)c3)c(N)c2c1-c1ccccc1Cl", "Plasmodium falciparum", 100),
    ("COc1cccc(C(=O)c2sc3nc(N)c(C#N)c(-c4ccccc4Cl)c3c2N)c1", "Plasmodium falciparum", 63.5),
]

Items follow; give inhibition at 15 µM for each.
1. N#Cc1c(N)nc2sc(C(=O)c3cccc(Cl)c3)c(N)c2c1-c1ccccc1Br
2. N#Cc1cccc(C(=O)c2sc3nc(N)c(C#N)c(-c4ccccc4Cl)c3c2N)c1

Completion:
[77.1, 30.3]
